Assay: Half life in monkey at 2.5 mg/kg, po by LC-MS method
Type: ADME, organism-based, Macaca mulatta
Conditions: rhesus monkey, in vivo
Endpoint: half-life (h)
Answers are plain numbers, in h.

Can you share its half-life? I mean this molecule: COC(=O)N[C@H](C(=O)N1CCC[C@H]1c1nc2cc([C@H]3CC[C@H](c4cc5nc([C@@H]6CCCN6C(=O)[C@@H](NC(=O)OC)[C@@H](C)OC)[nH]c5cc4F)N3c3cc(F)c(N4CCC(c5ccc(F)cc5)CC4)c(F)c3)c(F)cc2[nH]1)[C@@H](C)OC [PIBRENTASVIR]
5.69

###

Assay: Oral bioavailability in mouse at 3 mg/kg by LC-MS method
Assay type: ADME, organism-based
Conditions: in vivo
Record form. Attribute: bioavailability. Fill in for each entry.
One number for each entry, in %.

chem_smiles=COC(=O)N[C@H](C(=O)N1CCC[C@H]1c1nc2cc([C@H]3CC[C@H](c4cc5nc([C@@H]6CCCN6C(=O)[C@@H](NC(=O)OC)[C@@H](C)OC)[nH]c5cc4F)N3c3cc(F)c(N4CCC(c5ccc(F)cc5)CC4)c(F)c3)c(F)cc2[nH]1)[C@@H](C)OC unit_string=% numeric_readout=7.9

Now let's try a different one.
Can you share its bioavailability? I mean this compound: COC(=O)N[C@H](C(=O)N1CCC[C@H]1C(=O)Nc1ccc([C@@H]2CC[C@@H](c3ccc(NC(=O)[C@@H]4CCCN4C(=O)[C@@H](NC(=O)OC)C(C)C)cc3)N2c2ccc(C(C)(C)C)cc2)cc1)C(C)C
41.7
